activity coefficient overview
- assay: activity coefficient (dimensionless); of the first substance listed, at infinite dilution; xn = mol fraction of the nth substance listed
- conditions-used: 302.8 K; 101 kPa; Liquid; Chromatography; x1 = 0
Note: the reply should be a number with no unit written.

Field activity coefficient (entry CCCCC [pentane] + CCCC[n+]1ccccc1.O=S(=O)([N-]S(=O)(=O)C(F)(F)F)C(F)(F)F ) reads 5.66

# activity coefficient of c1ccccc1 [benzene] + CCCC[n+]1ccccc1.O=S(=O)([N-]S(=O)(=O)C(F)(F)F)C(F)(F)F = 1.33

Field activity coefficient (entry CO [methanol] + CCCCC[n+]1ccccc1.O=S(=O)([N-]S(=O)(=O)C(F)(F)F)C(F)(F)F ) reads 1.62

Memo: CCCCCCCC [octane] + CC[n+]1ccccc1.O=S(=O)([N-]S(=O)(=O)C(F)(F)F)C(F)(F)F , reported activity coefficient: 52.9

Per the records, this compound ( C#CCCCCC [1-heptyne] + CCCC[n+]1ccccc1.O=S(=O)([N-]S(=O)(=O)C(F)(F)F)C(F)(F)F ) has activity coefficient equal to 5.63

Short answer for CCCCCC [hexane] + CC[n+]1ccccc1.O=S(=O)([N-]S(=O)(=O)C(F)(F)F)C(F)(F)F : activity coefficient was 13.8
